target: T1, mouse NKp46 (mouse, UniProt Q8C567 17-325)
T1 construct: whole, on cells
T1 sequence (looked up): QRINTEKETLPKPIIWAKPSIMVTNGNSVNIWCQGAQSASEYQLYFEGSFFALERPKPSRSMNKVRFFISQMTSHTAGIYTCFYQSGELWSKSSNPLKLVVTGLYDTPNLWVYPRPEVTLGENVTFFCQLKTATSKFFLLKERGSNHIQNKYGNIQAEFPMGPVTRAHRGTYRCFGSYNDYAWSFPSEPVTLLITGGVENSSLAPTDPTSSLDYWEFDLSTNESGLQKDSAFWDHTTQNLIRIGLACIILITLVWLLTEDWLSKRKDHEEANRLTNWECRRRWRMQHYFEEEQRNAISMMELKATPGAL
experiment: flow cytometry, HEK293F cells transfected with mouse NKp46
pKd: −log10 of the molar value.
quantity: pKd

binder	quantity	val
NKp46-hz5D7v3-Fc* (Fc fusion, VHH-Fc fusion with an IgG1 Fc lacking a hinge (Fc*); also called NKp46-bz5D7v3-Fc*) EVQLVESGGGEVQPGGSLRLSCAASGRTFASAAMGWFRQAPGKEREFVAAISRSDDTYYAESVKGRFTISRDNAKNTVYLQMSSLRAEDTAVYYCAAVVPTYGNNIYVHSAAYNYWGQGTLVTVKPGGGGPSVFLFPPKPKDTLMISRTPEVTCVVVDVSHEDPEVKFNWYVDGVEVHNAKTKPREEQYNSTYRVVSVLTVLHQDWLNGKEYKCKVSNKALPAPIEKTISKAKGQPREPQVYTLPPSRDELTKNQVSLTCLVKGFYPSDIAVEWESNGQPENNYKTTPPVLDSDGSFFLYSKLTVDKSRWQQGNVFSCSVMHEALHNHYTQKSLSLSPG	pKd	9.16
NKp46-hz5D7v2-Fc* (Fc fusion, VHH-Fc fusion with an IgG1 Fc lacking a hinge (Fc*); also called NKp46-bz5D7v2-Fc*) EVQLVESGGGEVQPGGSLRLSCAASGRTFASAAMGWFRQAPGKEREFVAAISRSDDTYYAESVKGRFTISRDNAKNTLYLQMSSLRAEDTAVYYCAAVVPTYGNNIYVHSAAYNYWGQGTLVTVKPGGGGPSVFLFPPKPKDTLMISRTPEVTCVVVDVSHEDPEVKFNWYVDGVEVHNAKTKPREEQYNSTYRVVSVLTVLHQDWLNGKEYKCKVSNKALPAPIEKTISKAKGQPREPQVYTLPPSRDELTKNQVSLTCLVKGFYPSDIAVEWESNGQPENNYKTTPPVLDSDGSFFLYSKLTVDKSRWQQGNVFSCSVMHEALHNHYTQKSLSLSPG	pKd	9.14
